Please provide measured pIC50 for the entries that follow.
Test system: A549
ASSAY_DETAILS: Antiproliferative activity against human A549 cells assessed as inhibition of cell growth incubated for 48 hrs by CCK8 assay
Type: functional, cell-based
RUN_CONDITIONS: A549, 48 h
Just so you know, pIC50 here is -log10 of the concentration in molar units; reply with that number alone.

[ask] Query (compound): CC[C@@]12Oc3c(OC)cccc3[C@H](O)N1[C@H]2P(=O)(c1ccccc1)c1ccccc1 (relative stereo) ; field requested: pIC50
[reply] 4.68

[ask] What about CC[C@@]12Oc3ccccc3[C@](C)(O)N1[C@H]2P(=O)(c1ccccc1)c1ccccc1 (relative stereo) ?
[reply] 5.49

[ask] What about CC[C@@]12Oc3ccccc3[C@H](O)N1[C@H]2P(=O)(c1ccccc1)c1ccccc1 (relative stereo) ?
[reply] 4.98

[ask] What about CC[C@@]12Oc3ccc(C)cc3[C@H](O)N1[C@H]2P(=O)(c1ccccc1)c1ccccc1 (relative stereo) ?
[reply] 4.89

[ask] What about CCOP(=O)(OCC)[C@@H]1N2[C@@H](O)c3ccccc3O[C@@]12C (relative stereo) ?
[reply] 4.80

[ask] What about CC(C)OP(=O)(OC(C)C)[C@@H]1N2[C@@H](O)c3ccccc3O[C@@]12C (relative stereo) ?
[reply] 5.52

[ask] What about C[C@]1(O)c2ccccc2O[C@@]2(C)[C@H](P(=O)(c3ccccc3)c3ccccc3)N12 (relative stereo) ?
[reply] 4.68

[ask] What about COc1cccc2c1O[C@@]1(C)[C@H](P(=O)(c3ccccc3)c3ccccc3)N1[C@H]2O (relative stereo) ?
[reply] 5.89

[ask] What about C[C@@]12Oc3ccc(F)cc3[C@H](O)N1[C@H]2P(=O)(c1ccccc1)c1ccccc1 (relative stereo) ?
[reply] 4.71

[ask] What about C[C@@]12Oc3ccccc3[C@H](O)N1[C@H]2P(=O)(c1ccccc1)c1ccccc1 (relative stereo) ?
[reply] 5.57

[ask] What about Cc1ccc2c(c1)[C@H](O)N1[C@@H](P(=O)(c3ccccc3)c3ccccc3)[C@]1(C)O2 (relative stereo) ?
[reply] 5.49

[ask] What about CC(C)OP(=O)(OC(C)C)[C@@H]1N2[C@@](C)(O)c3ccccc3O[C@@]12C (relative stereo) ?
[reply] 4.99

====

Tested on: HEK293
ASSAY_DETAILS: Antiproliferative activity against HEK293 cells assessed as inhibition of cell growth incubated for 48 hrs by CCK8 assay
Assay type: functional, cell-based
RUN_CONDITIONS: Homo sapiens, HEK293, 48 h
pIC50: −log10 of the molar value.
MEASURE_NAME: pIC50

[ask] Query (molecule): COc1cccc2c1O[C@@]1(C)[C@H](P(=O)(c3ccccc3)c3ccccc3)N1[C@H]2O (relative stereo) ; field requested: pIC50
[reply] < 4.30

[ask] What about CC(C)OP(=O)(OC(C)C)[C@@H]1N2[C@@](C)(O)c3ccccc3O[C@@]12C (relative stereo) ?
[reply] < 4.30

[ask] What about CC[C@@]12Oc3c(OC)cccc3[C@H](O)N1[C@H]2P(=O)(c1ccccc1)c1ccccc1 (relative stereo) ?
[reply] < 4.30

[ask] What about CC[C@@]12Oc3ccccc3[C@](C)(O)N1[C@H]2P(=O)(c1ccccc1)c1ccccc1 (relative stereo) ?
[reply] < 4.30

[ask] What about C[C@@]12Oc3ccc(F)cc3[C@H](O)N1[C@H]2P(=O)(c1ccccc1)c1ccccc1 (relative stereo) ?
[reply] < 4.30
